Each entry below carries its reported pEC50.
Test system: SARS-CoV-2
procedure_summary: Inhibitory activity of cytopathic effect (CPE) in HEK293T/ACE2-TMPRSS2 cells
Type: cell-based
condition_notes: Severe acute respiratory syndrome coronavirus 2, HEK-293T, 72 h; HEK293T/ACE2-TMPRSS2 cells, cultured 3 days, CellTiter-Glo 2.0 luminescence; read-out: EC50 (50% SARS-CoV-2 infected cell death inhibitory concentration)
pEC50: −log10 of the molar value.

Worked set:
>  <compound>
O=c1[nH]c(N2CCC[C@@H]2CO)cc2c1c(=O)n(-c1cnc3ccccn13)c(=O)n2Cc1cc(F)c(F)c(Cl)c1

>  <pEC50>
> 7.00

$$$$
>  <compound>
COc1nc(N2CC[C@@H](OC)C2)cc2c1c(=O)n(-c1cnc3cc(F)ccn13)c(=O)n2Cc1cc(F)c(F)c(F)c1

>  <pEC50>
> 7.00

$$$$
>  <compound>
Cn1cnc(Cn2c(=O)c3c(cc(-c4cc(C#N)ccc4Cl)n4nnnc34)n(Cc3cc(F)c(F)c(F)c3)c2=O)n1

>  <pEC50>
6.00 to 7.00

$$$$
>  <compound>
COc1nc(N2CCC(F)(F)C2)cc2c1c(=O)n(-c1cnc3cc(F)c(F)cn13)c(=O)n2-c1ccc(F)c(Cl)c1

>  <pEC50>
> 7.00

$$$$

Specify pEC50 for `Cn1cnc(Cn2c(=O)c3c4c(c(-c5cnccc5Cl)cc3n(Cc3cc(F)c(F)c(Cl)c3)c2=O)CCO4)n1` and stop.
> 7.00

State, in one line, measured pEC50 of `COc1nc(N2CC[C@@H](O)C2)cc2c1c(=O)n(-c1cncc(OC(F)F)c1)c(=O)n2-c1ccc(F)c(F)c1`
> 7.00

Name the recorded pEC50 of the item `[2H]C([2H])([2H])O[C@@H]1CCN(c2cc3c(c(OC)n2)c(=O)n(-c2cnc4cc(F)ccn24)c(=O)n3-c2cc(F)c(F)c(Cl)c2)C1` in your answer.
> 7.00

Note pEC50 for the compound shown: `COc1nc(N2CC[C@@H](O)C2)cc2c1c(=O)n(-c1cncc(F)c1)c(=O)n2-c1ccc(F)c(F)c1`
> 7.00

Please give the documented pEC50 of `Cn1cnc(Cn2c(=O)c3c4c(c(-c5cc(C#N)ccc5Cl)cc3n(Cc3cc(F)c(F)c(Cl)c3)c2=O)CCO4)n1`
> 7.00

Quick one: give measured pEC50 for `CCc1cc2c(c(OC)n1)c(=O)n(-c1cnc3cc(F)ccn13)c(=O)n2-c1ccc(F)c(Cl)c1`
> 7.00

====

Form field: EC50 (one value per entry).
Tested on: SARS-CoV-2
procedure_summary: Inhibitory activity of cytopathic effect (CPE) in HEK293T/ACE2-TMPRSS2 cells
Assay type: cell-based
condition_notes: Severe acute respiratory syndrome coronavirus 2, HEK-293T, 72 h; HEK293T/ACE2-TMPRSS2 cells, cultured 3 days, CellTiter-Glo 2.0 luminescence; read-out: EC50 (50% SARS-CoV-2 infected cell death inhibitory concentration)

>  <smiles>
[2H]C([2H])([2H])O[C@@H]1CCN(c2cc3c(c(OC)n2)c(=O)n(-c2cncc(C(F)F)c2)c(=O)n3-c2ccc(F)c(Cl)c2)C1

>  <EC50>
< 0.1 µM

$$$$
>  <smiles>
[2H]C([2H])([2H])O[C@@H]1CCN(c2cc3c(c(OC)n2)c(=O)n(-c2cncc(F)c2)c(=O)n3-c2ccc(F)c(F)c2)C1

>  <EC50>
< 0.1 µM

$$$$

Provide measured EC50 on SARS-CoV-2 for `COC[C@@H](C)Nc1cc2c(c(OC)n1)c(=O)n(-c1cnc3cc(F)ccn13)c(=O)n2-c1ccc(F)c(Cl)c1` please.
< 0.1 µM

Give the observed EC50 of `Cn1c(-c2cc(C#N)ccc2Cl)cc2c(c1=O)c(=O)n(-c1cnc3ccc(F)cn13)c(=O)n2Cc1cc(F)c(F)c(F)c1` for SARS-CoV-2.
< 0.1 µM

Give EC50 for `COc1nc2c(=O)n(Cc3ncn(C)n3)c(=O)n(Cc3cc(Cl)cc(Cl)c3)c2cc1-c1cc(C#N)ccc1Cl` tested on SARS-CoV-2.
< 0.1 µM

Jot down EC50 (SARS-CoV-2) of `C=Cc1cc2c(c(OC)n1)c(=O)n(-c1cnc3cc(F)ccn13)c(=O)n2-c1ccc(F)c(F)c1` .
0.1 to 1 µM

====

Tested on: SARS-CoV-2
procedure_summary: Inhibitory activity of cytopathic effect (CPE) in HEK293T/ACE2-TMPRSS2 cells
Format: cell-based
condition_notes: Severe acute respiratory syndrome coronavirus 2, HEK-293T, 72 h; HEK293T/ACE2-TMPRSS2 cells, cultured 3 days, CellTiter-Glo 2.0 luminescence; read-out: EC50 (50% SARS-CoV-2 infected cell death inhibitory concentration)
pEC50: −log10 of the molar value.
measured_metric: pEC50

>  <compound>
COc1nc(N2CC[C@@H](NC(C)=O)C2)cc2c1c(=O)n(-c1cncc(Cl)c1)c(=O)n2-c1ccc(F)c(Cl)c1 [Compound I-0994]

>  <pEC50>
> 7.00

$$$$
>  <compound>
CCN(CC)c1cc2c(c(OC)n1)c(=O)n(-c1cnc3cc(F)ccn13)c(=O)n2-c1ccc(F)c(Cl)c1 [Compound I-1058]

>  <pEC50>
> 7.00

$$$$
>  <compound>
COc1nc2c(=O)n(Cc3ncn(C)n3)c(=O)n(Cc3cc(C#N)c(F)cc3Cl)c2cc1-c1cc(C#N)ccc1Cl [Compound I-0722]

>  <pEC50>
> 7.00

$$$$
>  <compound>
COc1c(-c2cc(C#N)ccc2Cl)cc2c(c(=O)n(Cc3ncn(C)n3)c(=O)n2Cc2cc(F)c(F)c(F)c2)[n+]1[O-] [Compound I-0709]

>  <pEC50>
5.00 to 6.00

$$$$
>  <compound>
COc1cc(-c2ncc(F)cc2Cl)cc2c1c(=O)n(Cc1ncn(C)n1)c(=O)n2Cc1cc(F)c(F)c(F)c1 [Compound I-0827]

>  <pEC50>
6.00 to 7.00

$$$$
>  <compound>
COc1nc(N2CC[C@@H](OC(F)F)C2)cc2c1c(=O)n(-c1cnc3cc(F)ccn13)c(=O)n2-c1ccc(F)c(Cl)c1 [Compound I-0763]

>  <pEC50>
> 7.00

$$$$
>  <compound>
CNC(=O)[C@@H]1CCN(c2cc3c(c(OC)n2)c(=O)n(-c2cnc4cc(F)ccn24)c(=O)n3-c2ccc(F)c(Cl)c2)C1 [Compound I-1000]

>  <pEC50>
> 7.00

$$$$
>  <compound>
COc1nc(N2CCC(S(C)(=O)=O)C2)cc2c1c(=O)n(-c1cnc3cc(F)ccn13)c(=O)n2-c1ccc(F)c(Cl)c1 (stereo not shown) [Compound I-1007]

>  <pEC50>
6.00 to 7.00

$$$$
>  <compound>
O=c1c2c(=O)n(-c3cnc4cc(F)ccn34)c(=O)n(-c3ccc(F)c(Cl)c3)c2cc2n1C[C@@H]1CCCCN21 [Compound I-0988]

>  <pEC50>
6.00 to 7.00

$$$$
>  <compound>
Cn1cnc(Cn2c(=O)c3c4c(c(-c5ncc(F)cc5Cl)cc3n(Cc3cc(F)c(F)c(Cl)c3)c2=O)CCO4)n1 [Compound I-0561]

>  <pEC50>
> 7.00

$$$$

Look up pEC50 of Cn1cnc(Cn2c(=O)c3c(cc(-c4cc(C#N)ccc4Cl)c[n+]3[O-])n(Cc3cc(F)c(F)c(F)c3)c2=O)n1 [Compound I-0697] and report it.
5.00 to 6.00

Item COc1cc(-c2cc(C#N)ccc2Cl)cc2c1c(=O)n(-c1cnc3ccccn13)c(=O)n2Cc1cc(F)c(F)c(F)c1 [Compound I-0660] : provide pEC50
> 7.00

Give pEC50 for the following compound: COc1nc(-c2cc(C#N)ccc2Cl)cc2c1c(=O)n(-c1cnc3ccc(F)cn13)c(=O)n2Cc1cc(F)c(F)c(F)c1 [Compound I-0680]
> 7.00

====

tested_system: UniProtKB P0DTD1
procedure_summary: Inhibitory activity test against SARS-CoV-2 3CL proteases
Assay type: biochemical
condition_notes: read-out: IC50 (50% SARS-CoV-2 3CL protease inhibitory concentration)
measured_metric: IC50

Solved cases below.
>  <smiles>
COc1nc(N2CCOCC2)cc2c1c(=O)n(-c1cnc3cc(F)ccn13)c(=O)n2-c1ccc(F)c(Cl)c1

>  <IC50>
22 nM

$$$$
>  <smiles>
Cc1cncc(-n2c(=O)c3c(Cl)cc(-c4cc(C#N)ccc4Cl)cc3n(Cc3cc(F)c(F)c(F)c3)c2=O)c1

>  <IC50>
< 100 nM

$$$$

Please examine the following record next.
Complete the entry with IC50 for `Cn1cnc(Cn2c(=O)c3c(F)c(C4CC4)c(-c4cc(C#N)ccc4Cl)cc3n(Cc3cc(F)c(F)c(Cl)c3)c2=O)n1`
< 100 nM
